- method.summary: log P (pH2.3)
- Assay type: physicochemical
- assay.conditions: reversed-phase HPLC column (C18); method [b]: LC-MS, acidic range, pH 2.7, 0.1% aqueous formic acid and acetonitrile
For each entry below, report its chromatographic logP value.
Answers are plain numbers.

Cc1cc(C(F)(F)F)nn1CC(=O)N1CCC(c2nc(CCc3cccc4ccccc34)cs2)CC1
4.37
COc1ccc(C#Cc2csc(C3CCN(C(=O)Cn4nc(C(F)(F)F)cc4C)CC3)n2)cc1
3.79
Cc1cc(C(F)(F)F)nn1CC(=O)N1CCC(c2nc(C#Cc3cccc4ccccc34)cs2)CC1
4.5

May I ask what chromatographic logP has been recorded for O=C(Cc1nc2ccccc2s1)N1CCC(c2nc(CCc3ccccc3)cs2)CC1 ?
3.68
